Target: human TRPM8 (Homo sapiens, UniProt Q7Z2W7)
Construct: expressed in transfected cells; host or cells: CHO (p658 mammalian expression vector)
Sequence (Q7Z2W7 whole entry): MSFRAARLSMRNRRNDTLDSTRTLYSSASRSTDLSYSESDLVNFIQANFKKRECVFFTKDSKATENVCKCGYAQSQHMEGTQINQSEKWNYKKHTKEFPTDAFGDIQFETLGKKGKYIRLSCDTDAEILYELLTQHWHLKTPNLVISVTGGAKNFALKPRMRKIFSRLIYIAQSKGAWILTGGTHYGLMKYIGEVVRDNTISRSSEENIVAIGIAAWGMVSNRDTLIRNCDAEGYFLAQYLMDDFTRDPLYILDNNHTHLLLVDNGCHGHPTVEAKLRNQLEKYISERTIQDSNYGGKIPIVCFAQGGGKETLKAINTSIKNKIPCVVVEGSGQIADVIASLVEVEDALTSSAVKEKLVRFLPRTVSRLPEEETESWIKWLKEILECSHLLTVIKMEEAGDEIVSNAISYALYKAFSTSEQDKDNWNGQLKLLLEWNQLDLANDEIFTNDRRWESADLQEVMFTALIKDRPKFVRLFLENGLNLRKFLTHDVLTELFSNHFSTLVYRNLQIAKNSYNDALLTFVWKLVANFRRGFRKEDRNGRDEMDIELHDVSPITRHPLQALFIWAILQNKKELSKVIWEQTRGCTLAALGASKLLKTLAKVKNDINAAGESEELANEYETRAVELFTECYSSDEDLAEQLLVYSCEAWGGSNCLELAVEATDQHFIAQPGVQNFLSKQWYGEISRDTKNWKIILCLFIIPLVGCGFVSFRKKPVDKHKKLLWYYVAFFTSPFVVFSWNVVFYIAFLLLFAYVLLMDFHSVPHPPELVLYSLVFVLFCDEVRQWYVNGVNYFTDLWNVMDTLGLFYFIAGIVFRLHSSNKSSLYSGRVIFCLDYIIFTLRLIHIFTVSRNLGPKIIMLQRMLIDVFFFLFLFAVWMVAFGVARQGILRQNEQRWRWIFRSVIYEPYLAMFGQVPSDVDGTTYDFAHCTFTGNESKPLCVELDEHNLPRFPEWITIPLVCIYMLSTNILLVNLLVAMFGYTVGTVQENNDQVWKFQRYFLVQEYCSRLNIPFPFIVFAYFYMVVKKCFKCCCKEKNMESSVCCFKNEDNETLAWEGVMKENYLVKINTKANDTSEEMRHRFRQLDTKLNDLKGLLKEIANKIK
Experiment: In vitro human TRPM8 automated patch-clamp assay (SyncroPatch 384PE, CHO cells)
Assay type: cell-based
Settings: CHO cells expressing human TRPM8, 28° C.
Quick rule for you: EC50 under 1000 nM gets Yes, anything else gets No.

(Q) Answer whether the molecule `CC(C)[C@@H]1CC[C@@H](C)C[C@@]1(O)C(=O)N[C@@H]1COc2ccccc2C1` has EC50 strictly less than 1000 nM
(A) No

(Q) Answer whether the molecule `CC(C)[C@@H]1CC[C@@H](C)C[C@@]1(O)C(=O)NC[C@@H](OCC(=O)O)c1ccccc1` has EC50 strictly less than 1000 nM
(A) No

(Q) Answer whether the molecule `CC(C)[C@@H]1CC[C@@H](C)C[C@@]1(O)C(=O)N[C@H](CO)Cc1ccccc1` has EC50 strictly less than 1000 nM
(A) No

(Q) Answer whether the molecule `CC(C)[C@@H]1CC[C@@H](C)C[C@@]1(O)C(=O)NC[C@H](F)c1ccccc1` has EC50 strictly less than 1000 nM
(A) Yes

(Q) Answer whether the molecule `CC(C)[C@@H]1CC[C@@H](C)C[C@@]1(O)C(=O)NCCc1ccc(CO)cc1` has EC50 strictly less than 1000 nM
(A) No

(Q) Answer whether the molecule `CC(C)[C@@H]1CC[C@@H](C)C[C@@]1(O)C(=O)NC[C@H](O)c1cccc(O)c1` has EC50 strictly less than 1000 nM
(A) No
